Tested on: metabotropic glutamate receptors
assay summary: displacement of 1S,3R-ACPD-sensitive [3H]glutamate binding to rat brain cell membranes
condition parameters: crude membranes of rat forebrain
measured parameter: IC50 (nM)
Give bare numbers, in nM.

Entry NC1(C(=O)O)COC2C(C(=O)O)C21 (stereo not shown) ; IC50 = 55
